Test system: IGROV1 ovarian
Assay: NCI tumour cell line growth inhibition, 48 h; in the data active = GI50 below about 0.43 µM; inactive = the rest
Bench note: report the call from 1 (active), 0 (inactive)

Input: Name the outcome recorded for CCCCCCCCCCCC1N=C(N)N=C(N)N1c1cccc(Br)c1 (centres undefined) in the assay.
Output: 0

Input: Name the outcome recorded for Cc1cc(NC(=O)NCc2ccc(N3C(N)=NC(N)=NC3(C)C)cc2)ccc1S(=O)(=O)F in the assay.
Output: 1

Input: Name the outcome recorded for S=c1ssnc1-c1cc2ccccc2o1 in the assay.
Output: 0

Input: Name the outcome recorded for CNC(=O)CCN1CCN(CC/C=C2\c3ccccc3Sc3ccc(Cl)cc32)CC1 in the assay.
Output: 0

Input: Name the outcome recorded for CC(=O)ON(OCc1ccc2ccccc2c1)C(C)=O in the assay.
Output: 0

Input: Name the outcome recorded for COc1cccc(C2CC(=O)Nc3c2c(C)nn3-c2nc3ccccc3[nH]2)c1OC (centres undefined) in the assay.
Output: 0

Input: Name the outcome recorded for CN1C2C=CC(=O)C1C1C(=O)N(c3ccccc3)C(=O)C12 (centres undefined) in the assay.
Output: 0

Input: Name the outcome recorded for COc1cc2c(c(OC)c1OC)-c1cc(I)c(O)cc1[C@@H](NC(C)=O)CC2 in the assay.
Output: 1

Input: Name the outcome recorded for CC[C@H](C)[C@H](NC(=O)[C@H]1CCCCN1C)C(=O)N(C)[C@H](CCc1nc(C(=O)N[C@@H](Cc2ccccc2)C[C@H](C)C(=O)O)cs1)C(C)C in the assay.
Output: 1

Input: Name the outcome recorded for COc1ccc(-c2nsc3c2NC(=O)CC3c2ccsc2)cc1 (centres undefined) in the assay.
Output: 0

Input: Name the outcome recorded for CCc1ccc2c(c1)C(=O)c1c-2n(CCCN)c(=O)c2cc(OC)c(OC)cc12 in the assay.
Output: 0

Input: Name the outcome recorded for O=C(Nc1cccc(-n2ccc3c(NC(=O)c4ccccc4)ncnc32)c1)Nc1ccc(Cl)c(C(F)(F)F)c1 in the assay.
Output: 0
